Source: patent US20200247894A1

- SYSTEM_UNDER_TEST: T1, Macaca fascicularis IL2Rγ extracellular domain expressed with a C-terminal myc-myc-hexahistidine tag (Macaca fascicularis)
- T1 construct: also called mfIL-2Rg-MMH; mfIL-2RG-MMH
- T1 chain: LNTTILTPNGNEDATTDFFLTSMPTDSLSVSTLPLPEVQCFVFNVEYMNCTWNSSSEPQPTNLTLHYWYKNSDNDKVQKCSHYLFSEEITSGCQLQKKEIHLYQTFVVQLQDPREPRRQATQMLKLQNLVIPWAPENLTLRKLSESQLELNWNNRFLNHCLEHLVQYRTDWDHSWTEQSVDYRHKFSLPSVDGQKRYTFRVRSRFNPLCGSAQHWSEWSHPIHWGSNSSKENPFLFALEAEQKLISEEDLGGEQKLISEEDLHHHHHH
- TEST_SUMMARY: SPR, captured mAb, 25C, dissociation pH 7.4
MEASURED_QUANTITY: t1/2 (h)
// return numeric value only (unit: h, not printed)

Entry H4H12871P (antibody, human IgG4 S228P, kappa, V domains shown, anti-IL2Rgamma mAb expressed with human IgG4 Fc; also called REGN9434) VH: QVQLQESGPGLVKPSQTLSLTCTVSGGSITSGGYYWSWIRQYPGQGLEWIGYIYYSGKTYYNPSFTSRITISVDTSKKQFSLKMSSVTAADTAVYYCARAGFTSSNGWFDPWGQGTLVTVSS VL: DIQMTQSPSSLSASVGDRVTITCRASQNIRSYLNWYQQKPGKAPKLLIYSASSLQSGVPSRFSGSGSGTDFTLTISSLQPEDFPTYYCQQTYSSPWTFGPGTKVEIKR : reported t1/2 = ?
0.4

Entry H4H12886P (antibody, human IgG4 S228P, kappa, V domains shown, anti-IL2Rgamma mAb expressed with human IgG4 Fc) VH: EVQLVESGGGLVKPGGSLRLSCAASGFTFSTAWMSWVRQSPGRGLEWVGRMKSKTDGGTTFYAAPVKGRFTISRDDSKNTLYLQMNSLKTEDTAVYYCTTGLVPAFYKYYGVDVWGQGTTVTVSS VL: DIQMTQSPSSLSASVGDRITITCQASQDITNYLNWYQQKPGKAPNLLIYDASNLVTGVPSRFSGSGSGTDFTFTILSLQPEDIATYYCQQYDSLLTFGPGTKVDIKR : reported t1/2 = ?
1.1

Entry H4H12863P (antibody, human IgG4 S228P, kappa, V domains shown, anti-IL2Rgamma mAb expressed with human IgG4 Fc) VH: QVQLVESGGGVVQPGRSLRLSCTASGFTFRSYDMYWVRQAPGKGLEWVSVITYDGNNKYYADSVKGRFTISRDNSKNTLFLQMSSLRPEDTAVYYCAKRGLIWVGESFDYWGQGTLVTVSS VL: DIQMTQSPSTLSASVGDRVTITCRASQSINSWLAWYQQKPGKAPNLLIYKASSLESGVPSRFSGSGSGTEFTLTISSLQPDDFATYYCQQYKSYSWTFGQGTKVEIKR : reported t1/2 = ?
0.983

Entry H4H12899P (antibody, human IgG4 S228P, kappa, V domains shown, anti-IL2Rgamma mAb expressed with human IgG4 Fc) VH: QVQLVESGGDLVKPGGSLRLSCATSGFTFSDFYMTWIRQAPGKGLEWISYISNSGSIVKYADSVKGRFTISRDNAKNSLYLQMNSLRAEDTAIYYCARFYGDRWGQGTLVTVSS VL: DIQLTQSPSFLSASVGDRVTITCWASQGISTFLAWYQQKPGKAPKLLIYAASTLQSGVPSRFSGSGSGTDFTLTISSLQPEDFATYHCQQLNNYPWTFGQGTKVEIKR : reported t1/2 = ?
1.15

Entry H4H12900P (antibody, human IgG4 S228P, kappa, V domains shown, anti-IL2Rgamma mAb expressed with human IgG4 Fc) VH: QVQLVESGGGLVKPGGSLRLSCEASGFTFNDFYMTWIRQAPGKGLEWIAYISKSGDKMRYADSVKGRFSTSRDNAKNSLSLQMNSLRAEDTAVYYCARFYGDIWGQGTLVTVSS VL: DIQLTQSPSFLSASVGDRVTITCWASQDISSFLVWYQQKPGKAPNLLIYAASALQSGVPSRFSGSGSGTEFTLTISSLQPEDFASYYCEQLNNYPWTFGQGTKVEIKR : reported t1/2 = ?
1.1

Entry H4H13538P (antibody, human IgG4 S228P, kappa, V domains shown, anti-IL2Rgamma mAb expressed with human IgG4 Fc) VH: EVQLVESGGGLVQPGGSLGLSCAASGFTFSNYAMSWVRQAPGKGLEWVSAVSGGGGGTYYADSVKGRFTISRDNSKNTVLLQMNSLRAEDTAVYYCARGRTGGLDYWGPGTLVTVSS VL: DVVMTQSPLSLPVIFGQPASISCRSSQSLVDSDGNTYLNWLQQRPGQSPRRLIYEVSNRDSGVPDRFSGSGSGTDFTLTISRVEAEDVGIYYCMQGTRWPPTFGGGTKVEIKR : reported t1/2 = ?
1.08
